Sourced from paper PMC8162404

target_or_test_system: CaM (Bos taurus, UniProt P62157)
Construct: made in house; host or cells: E. coli BL21 (DE3)
protocol_details: Pull-down assay with immobilized protein and LSM libraries
Format: binding, bovine
condition_label: H12 library; 1:2 stoichiometry assumed; read-out: Surface mapping KD (apparent)
recorded_metric: Kd (µM)
Expressed in µM, but write only the number.

NCCCC[C@@H](CC(=O)N[C@H]1CCC[C@@H]1C(=O)N[C@H]1CCC[C@@H]1C(N)=O)NC(=O)[C@H]1CCC[C@@H]1NC(=O)[C@H]1CCC[C@@H]1NC(=O)C[C@H](Cc1ccccc1)NC(=O)[C@H]1CCC[C@@H]1NC(=O)[C@H]1CCC[C@@H]1N 448

Moving on to the next compound.
Lookup result for NC(=O)C[C@@H](CC(=O)N[C@H]1CCC[C@@H]1C(=O)N[C@H]1CCC[C@@H]1C(=O)N[C@H](CC(=O)N[C@H]1CCC[C@@H]1C(=O)N[C@H]1CCC[C@@H]1C(N)=O)Cc1ccccc1)NC(=O)[C@H]1CCC[C@@H]1NC(=O)[C@H]1CCC[C@@H]1N ; measured Kd: 162
